Entry source: patent US20250027068

Measured Enzyme Activity Endpoint Assay: scIgG of individual entries
Target: pooled human IgG
Quantity: Enzyme Activity Endpoint Assay: scIgG (ng/µL)

- Protein: "PRT-34 (protein) MANQEIRYSEVTPYHVTSVWTKGVTPPANFTQGEDVFHAPYVANQGWYDITKTFNGKDDLLCGAATAGNMLHWWFDQNKDQIKRYLEEHPEKQKINFNGEQMFDVKEAIDTKNSQLDSKLFEYFKEKAFPYLSTKHLGVFPDHVIDMFINGYRLSLTNHGPTPVKEGSKDPRGGIFDAVFTRGDQSKLLTSRHDFKEKNLKEISDLIKKELTEGKALGLSHTYANVRINHVINLWGADFDSNGNLKAIYVTDSDSNASIGMKKYFVGVNSAGKVAISAKEIKEDNIGAQVLGLFTLSTGQDSWNQTN"
  Unit of measure: "ng/µL"
  Observed value: 14
- Protein: "PRT-548 (protein) MANQEIRYSEETPKTITSVWTKGVTPPTDFIKNEDVLHAPYIANQGWYDITKTFNGKDDLLCGAATAGNMLHWWFDQNKEEIENYLKKHPEKQKINFNGEQMFDVKEAIDTKDSQTDSALFEYFKDKAFPYLSTKHLGVFPDHVIDMFINGYRLSLTNHGPTPVKRGTKDPRGGIFDAVFTRGDQTKLLTARHDFKEKTLNEISDLIKQELTEGKALGLSHTYANVRINHVINLWGADFNSEGNLEAIYVTDSDSNASIGMKKYYVGVNAAGKVAISAKEIEGDNIGAQVLGLFTLSTGQDIWEQTNLEHHHHHH"
  Unit of measure: "ng/µL"
  Observed value: 0
